Consider the following binders; for each one, report its log10 of koff.
Biological target: T1, recombinant CD3D&E protein (human CD3-his tag) (human, UniProt P04234 22-105; P07766 23-126, limits assumed)
T1 construct: Analyte in Biacore; also called CD3D&E-His; CD3d&ε-His
T1 sequence (P04234 22-105 limits assumed, chain 1 of 2): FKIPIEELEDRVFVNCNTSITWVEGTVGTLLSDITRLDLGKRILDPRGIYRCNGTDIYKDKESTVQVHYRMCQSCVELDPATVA
T1 sequence (P07766 23-126 limits assumed, chain 2 of 2): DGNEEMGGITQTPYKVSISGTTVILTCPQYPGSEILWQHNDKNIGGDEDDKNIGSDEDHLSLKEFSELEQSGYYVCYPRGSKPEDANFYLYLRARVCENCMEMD
Experiment: SPR Biacore, Ab captured on Protein A;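 note: humanized antibodies on a Protein A chip, human CD3-his analyte flowed over in serial dilutions for 3 min, dissociation tracked 120–360 s on a Biacore T200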
Hey, these are logged values: log10 of koff, s⁻¹ being the unit before logging.

Look up log10 of koff for this binder: Hu192A7B9-19 (antibody, V domains shown, humanized mAb) VH: EVQLQESGPGLVKPSETLSLTCTVSGGSISSYNVHWIRQPPGKGLEWIGRMRYNGDTSYNSALKSRVTISVDTSKNQFSLKLSSVTAADTAVYYCARGPRGGYYSALFDYWGQGTMVTVSS VL: DIQMTQSPSSLSASVGDRVTITCKASQNINRYLNWYQQKPGKAPKVLISIANSLQTGIPSRFSGSGSGTDFTLTISSLQPEDFATYFCLQHNSWYTFGQGTKLEIK
-2.27

Please give the measured log10 of koff for this binder: Hu155A9B1-2 (antibody, V domains shown, humanized mAb) VH: EVQLQESGPGLVKPSETLSLTCTVSGGSISSYNVHWVRQPPGKGLEWIGRVRYNGDTSYNSALKSRVTISRDTSKNQFSLKLSSVTAADTAVYYCARGPYGGSSEPLFDYWGQGTMVTVSS VL: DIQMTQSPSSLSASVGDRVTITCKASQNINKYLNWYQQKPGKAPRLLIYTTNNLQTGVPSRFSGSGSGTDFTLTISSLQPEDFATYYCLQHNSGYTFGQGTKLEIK
-2.15

Recorded log10 of koff for Hu153A6B1-7 (antibody, V domains shown, humanized mAb) VH: EVQLQESGPGLVKPSETLSLTCTVSGGSISSYNIHWIRQPPGKGLEWIGRIRYNGDTSYNSALKSRVTISVDTSKNQFSLKLSSVTAADTAVYYCARGPYGGSREPLFDYWGQGTMVTVSS VL: DIQMTQSPSSLSASVGDRVTITCKTSQNINKYLNWFQQKPGKAPKLLIYTTNNLQTGIPSRFSGSGSGTDFTLTISSLQPEDFATYYCLQHGSGYTFGQGTKLEIK , please?
-1.85

If you can, please state the reported log10 of koff value of Hu153A6B1-18 (antibody, V domains shown, humanized mAb) VH: EVQLQESGPGLVKPSETLSLTCTVSGFSLTSYNIHWVRQPPGKGLEWMGRIRYNGDTSYNSALKSRLTISRDTSKNQVSLKLSSVTAADTAVYYCTRGPYGGSREPLFDYWGQGTMVTVSS VL: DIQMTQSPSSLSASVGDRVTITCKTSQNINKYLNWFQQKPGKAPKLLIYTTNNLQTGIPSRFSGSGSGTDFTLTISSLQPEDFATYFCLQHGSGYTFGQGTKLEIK .
-2.97

What value of measured log10 of koff is listed for Hu192A7B9-17 (antibody, V domains shown, humanized mAb) VH: EVQLQESGPGLVKPSETLSLTCTVSGFSISSYNVHWVRQPPGKGLEWMGRMRYNGDTSYNSALKSRLTISRDTSKNQVSLKLSSVTAADTAVYYCTRGPRGGYYSALFDYWGQGTMVTVSS VL: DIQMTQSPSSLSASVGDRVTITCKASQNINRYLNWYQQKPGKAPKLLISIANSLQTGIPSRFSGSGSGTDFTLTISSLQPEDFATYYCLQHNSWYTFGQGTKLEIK ?
-2.27

Which log10 of koff is reported for this binder? Hu192A7B9-21 (antibody, V domains shown, humanized mAb) VH: EVQLQESGPGLVKPSETLSLTCTVSGGSISSYNVHWVRQPPGKGLEWMGRMRYNGDTSYNSALKSRLTISRDTSKNQFSLKLSSVTAADTAVYYCARGPRGGYYSALFDYWGQGTMVTVSS VL: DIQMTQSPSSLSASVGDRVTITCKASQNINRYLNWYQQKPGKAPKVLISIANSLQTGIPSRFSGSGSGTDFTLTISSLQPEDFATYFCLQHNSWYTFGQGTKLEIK
-2.30

Please look up its log10 of koff: Hu192A7B9-9 (antibody, V domains shown, humanized mAb) VH: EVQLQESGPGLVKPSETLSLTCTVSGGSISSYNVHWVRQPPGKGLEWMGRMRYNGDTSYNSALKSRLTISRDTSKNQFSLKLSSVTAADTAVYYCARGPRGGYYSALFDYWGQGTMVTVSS VL: DIQMTQSPSSLSASVGDRVTITCKASQNINRYLNWYQQKPGKAPKLLISIANSLQTGVPSRFSGSGSGTDFTLTISSLQPEDFATYYCLQHNSWYTFGQGTKLEIK
-1.69

Sample Hu153A6B1-1 (antibody, V domains shown, humanized mAb) VH: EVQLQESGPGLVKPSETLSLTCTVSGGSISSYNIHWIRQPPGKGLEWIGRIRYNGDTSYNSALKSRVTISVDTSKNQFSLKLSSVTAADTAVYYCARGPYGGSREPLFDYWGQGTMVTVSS VL: DIQMTQSPSSLSASVGDRVTITCKTSQNINKYLNWYQQKPGKAPKLLIYTTNNLQTGVPSRFSGSGSGTDFTLTISSLQPEDFATYYCLQHGSGYTFGQGTKLEIK — what was its log10 of koff?
-2.41

Entry Hu192A7B9-18 (antibody, V domains shown, humanized mAb) VH: EVQLQESGPGLVKPSETLSLTCTVSGFSLTSYNVHWVRQPPGKGLEWMGRMRYNGDTSYNSALKSRLTISRDTSKNQVSLKLSSVTAADTAVYYCTRGPRGGYYSALFDYWGQGTMVTVSS VL: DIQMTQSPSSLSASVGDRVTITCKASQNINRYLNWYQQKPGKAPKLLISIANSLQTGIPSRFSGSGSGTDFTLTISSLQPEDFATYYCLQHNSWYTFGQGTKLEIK : reported log10 of koff = ?
-2.50

Name the reported log10 of koff value associated with the binder Hu153A6B1-11 (antibody, V domains shown, humanized mAb) VH: EVQLQESGPGLVKPSETLSLTCTVSGFSISSYNIHWVRQPPGKGLEWMGRIRYNGDTSYNSALKSRLTISRDTSKNQVSLKLSSVTAADTAVYYCTRGPYGGSREPLFDYWGQGTMVTVSS VL: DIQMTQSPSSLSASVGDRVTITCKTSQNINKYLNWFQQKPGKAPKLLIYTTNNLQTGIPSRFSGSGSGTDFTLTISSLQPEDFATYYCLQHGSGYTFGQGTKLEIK
-2.97
